- Tested on: Rotavirus
- method_notes: Inhibitory activity against NCDV(bovine) rotavirus strain.
- Format: functional, organism-based
experimental_endpoint: IC50 (mM)
// return numeric value only (unit: mM, not printed)

### Prompt // returns reported IC50 for input COC1OC(CSC2(C(=O)O)CC(O)C(NC(C)=O)C([C@H](O)[C@H](O)CO)O2)C(O)C(O)C1O (stereo in doubt; 14)
### Response 6.25

----------
- System: Rotavirus
- method_notes: Inhibitory activity against NCDV(bovine) rotavirus strain.
- Type: functional, organism-based
- particulars: Rotavirus
experimental_endpoint: IC50

### Prompt Which IC50 is reported with Rotavirus for this entry: COC1OC(CO)C(SC2(C(=O)O)CC(O)C(NC(C)=O)C([C@H](O)[C@H](O)CO)O2)C(O)C1O (stereo partly drawn) ?
### Response 6.25 mM

### Prompt Which IC50 is reported with Rotavirus for this entry: COC1OC(CSC2(C(=O)O)CC(O)C(NC(C)=O)C([C@H](O)[C@H](O)COC(C)=O)O2)C(O)C(O)C1O (stereo partly drawn) ?
### Response 1.5 mM

### Prompt Which IC50 is reported with Rotavirus for this entry: COC1OC(CSC2(C(=O)O)CC(O)C(NC(C)=O)C([C@H](O)[C@H](O)COC(C)=O)O2)C(OC(C)=O)C(O)C1O (stereo partly drawn) ?
### Response 1.5 mM

### Prompt Which IC50 is reported with Rotavirus for this entry: COC1OC(CSC2(C(=O)O)CC(O)C(NC(C)=O)C([C@H](O)[C@H](O)COC(C)=O)O2)C(O)C(O)C1NC(C)=O (stereo partly drawn) ?
### Response 0.35 mM

### Prompt Which IC50 is reported with Rotavirus for this entry: CO[C@H]1O[C@H](CSC2(C(=O)O)CC(O)C(NC(C)=O)C(C(O)[C@H](O)CO)O2)[C@@H](O)[C@@H]1O (single isomer, unassigned) ?
### Response 6.25 mM

### Prompt Which IC50 is reported with Rotavirus for this entry: CC(=O)NC1C(O)CC(SC[C@@H](O)C2OC3OC(C)(C)OC3C2O)(C(=O)O)OC1[C@H](O)[C@H](O)CO (stereo partly drawn) ?
### Response 6.25 mM

### Prompt Which IC50 is reported with Rotavirus for this entry: COC1OC(CSC2(C(=O)O)CC(O)C(NC(C)=O)C([C@H](O)[C@H](O)CO)O2)C(O)C(O)C1O (stereo in doubt; 16) ?
### Response 6.25 mM

### Prompt Which IC50 is reported with Rotavirus for this entry: COC1OC(CSC2(C(=O)O)CC(O)C(NC(C)=O)C([C@H](O)[C@H](O)CO)O2)C(O)C(O)C1NC(C)=O (stereo partly drawn) ?
### Response 6.25 mM
